The reported measurements were obtained from the supplement of paper PMC6755084.

test system: F1*sub RNA substrate (template-directed ligation); experiment: fraction ligated after 30 min (ligated reads / total reads); higher = more ligase activity; sequences stand for … in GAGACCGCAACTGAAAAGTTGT…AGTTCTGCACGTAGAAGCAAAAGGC; conditions: 42 °C
Would you mind sorting the entries by fraction ligated according to these classes? category 1 (below 0.1), category 2 (0.1 to below 0.7), category 3 (0.7 or more)

Example results:
In [3]: df
Out[3]:
                            sequence_record       group
0   ATCACTTTCGTAAGACACTTTGGATGGGTTG [3d139]  category 3
1  TATCACTTGTCGTAACACTTTGGATGGTTGA [3d2000]  category 1
2   ATCATTGTCGTAAGACACTTTGGAGGGTTGA [3d101]  category 2
3   ATCACTTGTCGTAAGACACTTTGATGGGTTA [3d264]  category 1
4   TTACTTGCGTAAGACACTTTGGATGGGTTGA [3d281]  category 1
5  TATCACTGTCGTAAGAACTTTGGATGGGTTG [3d1425]  category 3
6  TATCACTGTCGTGACACTTTGGATGGGTTGA [3d1385]  category 3
7    ATCATTGTCGTAAGACACTTGGATGGGTTGA [3d98]  category 3
8    ACACTTGTCGTAAGACATTTGGATGGGTTGA [3d38]  category 2
9    ACACTTGTCGTAAACACTTTGGATGGGTTGA [3d34]  category 2

Query: State the class of the sequence shown: TACACTTGTCTAAACACTTTGGATGGGTTGA [3d634]
Response: category 2

Query: Repeat with TTCACTTGTCGTAAGCACTTTGGATGGTTGA [3d459]
Response: category 2

Query: Repeat with TTCACTTGTCGAAGACACTTTGGATGGGTTGA [2d33]
Response: category 3

----------
test system: F1*sub RNA substrate (template-directed ligation); experiment: fraction ligated after 30 min (ligated reads / total reads); higher = more ligase activity; sequences stand for … in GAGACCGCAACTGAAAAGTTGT…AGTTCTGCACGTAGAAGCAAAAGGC; details: 42 °C
The reader will find reported fraction ligated values listed item by item below.
Response field accepts a number only; no unit should be typed.

Before answering, review these 6 worked examples.
                            sequence_record  recorded_measurement
0   TATACTTTCGTAAGACACTTTGGATGGGTTA [3d810]               0.00702
1  TATCACTTTGTAAACACTTTGGATGGGTTGA [3d1467]                 0.823
2  TATCACTTGTCGTAAGACCTTTGATGGGTTA [3d2194]                0.0671
3  TATCATTGTCGTAAGACCTTGGATGGGTTGA [3d1255]                 0.804
4   ATCACTTGTCGTAAGACACTTTGGATGGTTA [3d273]                  0.68
5  TATCACTTGTGTAAGACACTTTGTGGGTTGA [3d1794]               0.00464

Query: State its fraction ligated on F1*sub RNA substrate (template-directed ligation): TATCACGTCGTAAGAACTTTGGATGGGTTGA [3d1301]
Response: 0.825

Query: Repeat with TTCACTTGCGTAGACACTTTGGATGGGTTGA [3d374]
Response: 0.736

Query: Repeat with TATCACTGTCGTAAGCACTTTGGATGGTTGA [3d1415]
Response: 0.175

Query: Repeat with ATCACTTCGTAAGACACTTTGGATGGGTTGA [3d106]
Response: 0.761

Query: Repeat with TATCTTGTCGAAGACACTTTGGATGGGTTGA [3d744]
Response: 0.755

Query: Repeat with TATACTTGTCGTAAGAACTTTGATGGGTTGA [3d905]
Response: 0.794

Query: Repeat with TATCACTTGTCGTAAGCATTTGGAGGGTTGA [3d2124]
Response: 0.0316

----------
system: F1*sub RNA substrate (template-directed ligation); assay: fraction ligated after 30 min (ligated reads / total reads); higher = more ligase activity; sequences stand for … in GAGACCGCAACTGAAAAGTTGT…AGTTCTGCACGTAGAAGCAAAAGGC; details: 42 °C
Class True: fraction ligated at least 0.7. Class False: fraction ligated below 0.7.

Example results:
                            sequence_record  group
0  TATCCTTGTCGAAGACACTTTGGATGGGTTA [3d1040]  False
1   TTCACTGTCGTAAGACACTTTGGATGGGTTG [3d354]   True
2  TATCACTTGTCGTAGACACTTTGGTGGTTGA [3d2049]  False

Query: Could you please find out whether ATCATTGTCGTAAGCACTTTGGATGGGTTGA [3d94] has fraction ligated that meets 0.7 or exceeds it?
Response: True

Query: Repeat with TATCACTTGCGTAAGAACTTTGGATGGGTTA [3d1665]
Response: False

Query: Repeat with ATCACTTGTCGTAAGACTTTGGATGGGTTGA [3d221]
Response: True

Query: Repeat with TATCACTTGTCGTAAGACACTTATGGGTTGA [3d2238]
Response: False

Query: Repeat with TATCACTTGTCGTAAGACTTTGATGGGTTGA [3d2108]
Response: True

Query: Repeat with TATCACTTGTCGAAGACATTTGGATGGTTGA [3d1954]
Response: False

Query: Repeat with TATACTTGTCTAAGAACTTTGGATGGGTTGA [3d847]
Response: True

Query: Repeat with TACACTTGTCTAAGACACTTTGGATGGGTTA [3d644]
Response: False

----------
The reader will find reported fraction ligated values listed item by item below.
test system: F1*sub RNA substrate (template-directed ligation); test: fraction ligated after 30 min (ligated reads / total reads); higher = more ligase activity; sequences stand for … in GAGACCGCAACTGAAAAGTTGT…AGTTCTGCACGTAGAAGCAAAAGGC; settings: 42 °C
Response field accepts a number only; no unit should be typed.

Before answering, review these 3 worked examples.
                           sequence_record  recorded_measurement
0  ATCACTTGTCGTAAGCACTTGGATGGGTTGA [3d224]                 0.716
1  TACACTTGTCTAAGACACTTTGATGGGTTGA [3d640]                0.0986
2  ATCACTTGTCGTAGACACTTTGATGGGTTGA [3d205]                 0.715

Consider the record given below.
Query: Which fraction ligated is listed for TATCACTTGTCGAAGACACTTTGGTGGGTTA [3d1972] ?
Response: 0.103

----------
test system: F1*sub RNA substrate (template-directed ligation); assay: fraction ligated after 30 min (ligated reads / total reads); higher = more ligase activity; sequences stand for … in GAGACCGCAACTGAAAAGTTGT…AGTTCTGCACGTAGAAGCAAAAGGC; settings: 42 °C
Class true: fraction ligated at least 0.2. Class false: fraction ligated below 0.2.

Example results:
In [3]: df
Out[3]:
                            sequence_record                              study_target  group
0  TATCACTGTCGTAAGACCTTTGGATGGGTTA [3d1431]  F1*sub RNA substrate (template-directed ligation)   true
1  TATCACTCGTAAGACACTTTGGATGGGTTGA [3d1293]  F1*sub RNA substrate (template-directed ligation)   true
2   TTCACTTGTCGAAGACACTTTGGTGGGTTGA [3d424]  F1*sub RNA substrate (template-directed ligation)  false

Query: Could you please find out whether TATCACTTGTCTAAGCACTTTGGATGGTTGA [3d1853] has fraction ligated that meets 0.2 or exceeds it?
Response: false

Query: Repeat with TTACTGTCGTAAGACACTTTGGATGGGTTGA [3d279]
Response: true

Query: Repeat with TTCACTTGTCGTAAGACCTTGGATGGGTTGA [3d470]
Response: true

Query: Repeat with TTCACTTGTGTAAGACACTTTGGATGGGTTGA [2d31]
Response: true

----------
The reader will find reported fraction ligated values listed item by item below.
test system: F1*sub RNA substrate (template-directed ligation); assay: fraction ligated after 30 min (ligated reads / total reads); higher = more ligase activity; sequences stand for … in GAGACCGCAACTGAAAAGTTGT…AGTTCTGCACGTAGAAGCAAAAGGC; settings: 42 °C

In [3]: df
Out[3]:
                            sequence_record  recorded_measurement
0   TTCACTTGTCGTAGACACTTTGGTGGGTTGA [3d437]                0.0435
1   TACCTTGTCGTAAGACACTTTGGTGGGTTGA [3d542]                 0.744
2  TATCACTTGTCGTAAGACATTGATGGGTTGA [3d2208]                 0.778
3       TATCACTGCGTAAGCCTTTGGATGGGTTGA [s2]                 0.814
4    ACACTTGTCGTAAGACACTTTGGATGGGTTGA [2d2]                 0.725
5  TATCACTTGTCGTAAGAACTTTATGGGTTGA [3d2166]                 0.067

Consider the record given below.
Query: Which fraction ligated is listed for ATCACTTGTCGTAGACACTTGGATGGGTTGA [3d204] ?
Response: 0.74
